# Assay system: EZH2/PRC2 complex (Homo sapiens)
# Sequence (O75530 whole entry): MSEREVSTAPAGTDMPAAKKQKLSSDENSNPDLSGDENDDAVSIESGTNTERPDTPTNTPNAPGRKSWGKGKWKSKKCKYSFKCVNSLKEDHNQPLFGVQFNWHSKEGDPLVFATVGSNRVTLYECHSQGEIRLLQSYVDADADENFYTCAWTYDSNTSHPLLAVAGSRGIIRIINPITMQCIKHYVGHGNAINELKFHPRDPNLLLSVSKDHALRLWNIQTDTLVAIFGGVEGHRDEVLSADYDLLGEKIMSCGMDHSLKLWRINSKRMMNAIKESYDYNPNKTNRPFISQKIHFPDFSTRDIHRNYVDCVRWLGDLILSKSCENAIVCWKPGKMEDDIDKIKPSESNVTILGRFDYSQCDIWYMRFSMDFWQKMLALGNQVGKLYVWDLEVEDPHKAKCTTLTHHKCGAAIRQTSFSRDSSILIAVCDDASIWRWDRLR
# Sequence (Q15910 whole entry partner): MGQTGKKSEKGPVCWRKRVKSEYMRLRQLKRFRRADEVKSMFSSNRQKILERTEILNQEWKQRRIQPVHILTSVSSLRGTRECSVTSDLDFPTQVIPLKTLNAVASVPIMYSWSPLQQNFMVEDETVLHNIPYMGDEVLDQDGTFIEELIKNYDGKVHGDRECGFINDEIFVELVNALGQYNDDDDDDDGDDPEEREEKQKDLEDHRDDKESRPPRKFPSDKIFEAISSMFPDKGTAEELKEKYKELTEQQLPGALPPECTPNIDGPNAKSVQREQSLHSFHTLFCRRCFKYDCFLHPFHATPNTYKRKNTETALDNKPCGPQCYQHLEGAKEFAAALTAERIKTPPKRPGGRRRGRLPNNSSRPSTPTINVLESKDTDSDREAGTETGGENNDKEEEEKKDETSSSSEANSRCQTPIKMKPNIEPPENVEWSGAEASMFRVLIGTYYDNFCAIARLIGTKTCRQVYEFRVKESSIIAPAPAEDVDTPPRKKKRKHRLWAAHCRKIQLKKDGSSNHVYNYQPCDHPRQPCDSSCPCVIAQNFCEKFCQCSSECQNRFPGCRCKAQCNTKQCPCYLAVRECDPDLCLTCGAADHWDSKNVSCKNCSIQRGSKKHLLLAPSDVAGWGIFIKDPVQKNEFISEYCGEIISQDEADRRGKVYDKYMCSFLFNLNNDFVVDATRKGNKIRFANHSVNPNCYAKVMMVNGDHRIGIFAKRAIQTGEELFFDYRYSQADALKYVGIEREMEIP
# Sequence (Q15022 whole entry partner): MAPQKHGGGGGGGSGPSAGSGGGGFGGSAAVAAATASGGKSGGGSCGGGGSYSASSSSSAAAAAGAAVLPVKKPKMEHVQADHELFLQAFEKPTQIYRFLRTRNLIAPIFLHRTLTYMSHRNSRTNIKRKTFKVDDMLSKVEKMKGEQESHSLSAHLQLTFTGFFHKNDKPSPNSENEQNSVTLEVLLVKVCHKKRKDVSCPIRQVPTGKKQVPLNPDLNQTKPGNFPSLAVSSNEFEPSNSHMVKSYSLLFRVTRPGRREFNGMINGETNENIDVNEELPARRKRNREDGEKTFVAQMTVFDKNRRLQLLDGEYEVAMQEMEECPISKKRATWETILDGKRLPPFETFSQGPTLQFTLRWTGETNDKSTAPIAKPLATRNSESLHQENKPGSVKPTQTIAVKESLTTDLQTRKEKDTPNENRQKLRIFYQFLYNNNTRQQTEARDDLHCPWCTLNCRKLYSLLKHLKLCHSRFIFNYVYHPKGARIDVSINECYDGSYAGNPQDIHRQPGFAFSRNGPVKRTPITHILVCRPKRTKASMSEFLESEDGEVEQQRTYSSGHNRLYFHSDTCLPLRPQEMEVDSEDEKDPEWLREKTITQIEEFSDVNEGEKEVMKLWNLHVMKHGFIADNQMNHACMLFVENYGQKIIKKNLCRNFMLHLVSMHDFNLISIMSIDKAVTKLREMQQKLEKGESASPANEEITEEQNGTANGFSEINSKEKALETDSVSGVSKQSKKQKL
# Protocol text: Histone methyltransferase assay (radioisotope-based HotSpot)
# Applied conditions: EZH2/PRC2 complex 10 nM, core histone substrate 0.05 mg/ml, 3H-SAM 1 μM; read-out: IC50, inhibitory effects on the HMT enzyme
pIC50: −log10 of the molar value.
Measured parameter: pIC50

// Cn1cc(Cc2cc3c(n4cnnc24)NCc2cccc4c2[C@@H](CO4)CO3)cn1 : pIC50 value = > 7.60

// Cn1nccc1-c1cc2c(n3cc(C(N)=O)nc13)NCc1c(F)ccc3c1[C@@H](CO3)CO2 : pIC50 value = > 7.60

// Fc1ccc2c3c1CNc1c(cc(Br)c4nncn14)OC[C@@H]3CO2 : pIC50 value = > 7.60

----------
# Test system: human P-glycoprotein HEK cells (HEK-P-gp)
# Protocol text: H3K27me3 immunocytochemistry assay in P-gp expressing HEK293T cells, with or without elacridar
# Type: cell-based
# Applied conditions: Homo sapiens, HEK293, with 250 nM elacridar; 4 days compound treatment; read-out: IC50, inhibitory activity on human P-glycoprotein HEK cells (HEK-P-gp) pretreated with elacridar
Measured parameter: IC50

// CS(=O)(=O)c1ccc(-c2cc3c(n4cnnc24)NCc2c(F)ccc4c2C(CO4)CO3)cc1 (stereo not shown) : IC50 value = < 25 nM

// CN(C)c1ncc(-c2cc3c(n4cnnc24)NCc2c(F)ccc4c2[C@H](CO4)CO3)cn1 : IC50 value = > 500 nM

// COC(=O)N1CCC(c2cc3c(n4cnnc24)NCc2c(F)cccc2COC3)CC1 : IC50 value = > 500 nM

// COc1ncc(F)cc1-c1cc2c(n3cnnc13)NCc1c(F)ccc3c1[C@H](CO3)CO2 : IC50 value = 100 to 500 nM

----------
# Test system: human P-glycoprotein HEK cells (HEK-P-gp)
# Protocol text: H3K27me3 immunocytochemistry assay in P-gp expressing HEK293T cells, with or without elacridar
# Assay type: cell-based
# Applied conditions: Homo sapiens, HEK293, 96 h, without elacridar; 4 days compound treatment; read-out: IC50, inhibitory activity on human P-glycoprotein HEK cells (HEK-P-gp)
pIC50: −log10 of the molar value.
Assignment: determine reported pIC50 for the given compounds.

// Cn1nc(C(C)(C)C#N)cc1-c1cc2c(n3cnnc13)NCc1c(F)ccc3c1[C@@H](CO3)CO2 [Compound 169] : pIC50 value = > 7.60

// CN(CC(F)(F)F)C(=O)c1cc2c(n3cnnc13)NCc1c(F)ccc3c1C(CO3)CO2 (centres unmarked) [Example 38] : pIC50 value = 7.00 to 7.30

// CNC(=O)CCc1ccc(-c2cc3c(n4cnnc24)NCc2c(F)ccc4c2C(CO4)CO3)c(C)n1 (centres unmarked) [Compound 191] : pIC50 value = 7.00 to 7.30

// OCc1ncccc1-c1cc2c(n3cnnc13)NCc1c(F)ccc3c1C(CO3)CO2 (centres unmarked) [Compound 195] : pIC50 value = > 7.60

// Cc1ncccc1-c1cc2c(n3cnnc13)NCc1c(F)cccc1COC2 [Compound 6] : pIC50 value = < 6.30

// Cn1ncc(O)c1-c1cc2c(n3cnnc13)NCc1c(F)ccc3c1C(CO3)CO2 (centres unmarked) [Compound 196] : pIC50 value = 7.30 to 7.60

// Cn1nc(OC(F)F)cc1-c1cc2c(n3cnnc13)NCc1c(F)ccc3c1[C@@H](CO3)CO2 [Compound 167] : pIC50 value = > 7.60

// COc1cccnc1-c1cc2c(n3cnnc13)NCc1c(F)ccc3c1[C@@H](CO3)CO2 [Compound 159] : pIC50 value = < 6.30

// Cc1ncc(-c2cc3c(n4cnnc24)NCc2c(F)cccc2COC3)c(C)n1 [Compound 182] : pIC50 value = < 6.30

// Cc1ncc(-c2cc3c(n4cnnc24)NCc2c(F)cccc2CCO3)c(C)n1 [Compound 14] : pIC50 value = < 6.30

// Cn1nccc1-c1cc2c(n3cnnc13)NCc1c(F)ccc3c1C(CO3)CO2 (centres unmarked) [Example 17] : pIC50 value = > 7.60

// Cc1ccnc(-c2cc3c(n4cnnc24)NCc2c(F)ccc4c2C(CO4)CO3)c1 (stereo in doubt) [Compound 149] : pIC50 value = < 6.30

// Fc1cncnc1-c1cc2c(n3cnnc13)NCc1c(F)ccc3c1[C@@H](CO3)CO2 [Compound 164] : pIC50 value = > 7.60

// Cc1nccc(O)c1-c1cc2c(n3cnnc13)NCc1c(F)ccc3c1C(CO3)CO2 (centres unmarked) [Compound 192] : pIC50 value = < 6.30

// Fc1ccc2c3c1CNc1c(cc(Br)c4nncn14)OC[C@@H]3CO2 [Compound 165] : pIC50 value = < 6.30

// Cn1nc(C(F)(F)F)cc1-c1cc2c(n3cnnc13)NCc1c(F)ccc3c1[C@H](CO3)CO2 [Example 115] : pIC50 value = 7.30 to 7.60

// Cn1cc(Cc2cc3c(n4cnnc24)NCc2cccc4c2[C@@H](CO4)CO3)cn1 [Compound 7] : pIC50 value = < 6.30

// provenance: patent US20220160686A1
